Measured values drawn from patent US20240075137A1 for this set.

Molecular target: T1, human TIGIT ECD with C-terminal polyhistidine tag (human, UniProt Q495A1 22-141)
T1 construct: in-house or Sino Biological; also called hTIGIT-HIS; human TIGIT-HIS
T1 sequence: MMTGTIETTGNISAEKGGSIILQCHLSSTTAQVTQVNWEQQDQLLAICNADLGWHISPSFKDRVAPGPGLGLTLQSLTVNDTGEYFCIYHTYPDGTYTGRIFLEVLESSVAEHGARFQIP
Assay: SPR (ProteOn), mAb captured, human TIGIT injected
property_name: pKd
Numbers only, as −log10 of the molar value.

{"binder": "CHA.9.543 (antibody, V domains shown) VH: EVQLQQSGPELVKPGASMKISCKASGYSFTGYTMNWVRQSHGKNLEWLGLIFPYNGGTSYNQNFKGKATLTVDTSSSTAYMELLSLTSVDSAVYYCARGVRFALDYWGQGTSVSVSS VL: DVVMTQTPLSLPVSFGDQVSISCRSSQSLANSYGNTYLSWYLHKPGQSPQLLIYEISNRFSGVPDRFSGSGSGTDFTLNISTIKPEDLGMYYCLQGTHQPWTFGGGTKLEIKR", "experimental_result": 10.64}
{"binder": "CPA.9.059 hIgG4 (antibody, V domains shown, phage-derived anti-TIGIT, human IgG4; also called CPA.9.059-H4) VH: EVQLVETGGGLIQPGGSLRLSCAASGFTVSSNYMSWVRQAPGKGLEWVSVIYSGGSTYYADSVKGRFTISRDNSKNTLYLQMNSLRAEDTAVYYCARGARYSYGQYPYWGQGTLVTVSS VL: DIQLTQSPSFLSASVGDRVTITCRASHDISSLFSWYQQKPGKAPKLLIYAASTLQTGVPSRFSGSASGTEFTLTISSLQPEDFATYYCLQLDSFPTWTFGQGTKVEIKR", "experimental_result": 10.67}

The record that follows has no pKd shown yet.
### Prompt Quick one: give measured pKd for CPA.9.027 hIgG4 (antibody, V domains shown, phage-derived anti-TIGIT, human IgG4; also called CPA.9.027-H4) VH: EVQLVETGGGLIQPGRSLRLSCAASGFTFSSYAMHWVRQAPGKGLEWVAVISYDGSNKYYADSVKGRFTISRDNSKNTLYLQMNSLRAEDTAVYYCARDPLPLHYYGMDVWGQGTTVTVSS VL: QSALTQPRSASGNPGQRVTISCSGSSSNMGRRPVNWYQQIPGTAPKLLIYSQNQRPSGVPDRFSGSQSGTSASLTISGLQSEDEAEYFCAVWDDSLSSLQLGGGTQLAVLG
### Response 9.89
